This section presents molecules with their documented inhibition at 50 µM values.
# TARGET_UNDER_TEST: E. coli DNA gyrase (Escherichia coli, UniProt P0AES4+P0AES6)
# Construct: purchased Inspiralis, UK
# MEASUREMENT_NOTES: DNA gyrase supercoiling assay (E. coli)
# Assay type: biochemical
# DETAILS: E. coli; conc. 50 μM; n/a = not active
# Procedure: The above compounds were tested for the inhibition of the enzyme DNA gyrase in a gyrase supercoiling assay and for the inhibition of the enzyme topoisomerase IV in a decatenation assay, in both Gram positive and Gram negative bacteria, according to the following methods. […] Inhibitory activity was expressed as percent of inhibition versus the positive control. The supercoiled or decatenated DNA bands obtained as described in Example 1 were analysed as follows. […]
Counter-ions that a name gives are not always drawn.
ASSAY_METRIC: inhibition at 50 µM

- MOLECULE: "O=c1oc2ccccc2c2[nH]c(CCN3CCN(c4nccc5ccc(F)cc45)CC3)nc12"
  ASSAY_METRIC: "inhibition at 50 µM"
  MEASURED_RESULT: "96%"
- MOLECULE: "O=c1nc(NCC(O)CN2CCN(c3nc(F)cc4ccc(OC(F)(F)F)cc34)CC2)c2cc(F)ccc2o1 (centres unmarked)"
  ASSAY_METRIC: "inhibition at 50 µM"
  MEASURED_RESULT: "60%"
- MOLECULE: "O=c1cc(NCCCN2CCN(c3nccc4ccccc34)CC2CO)c2ccccc2o1 (centres unmarked)"
  ASSAY_METRIC: "inhibition at 50 µM"
  MEASURED_RESULT: "93%"
- MOLECULE: "COC1CN(c2nccc3ccc(F)cc23)CCC1NCc1cc2c(=O)oc3ccccc3c2[nH]1 (centres unmarked)"
  ASSAY_METRIC: "inhibition at 50 µM"
  MEASURED_RESULT: "93%"
- MOLECULE: "O=c1oc2ccccc2c2[nH]c(C(O)CN3CCN(c4nccc5ccc(F)cc45)CC3)nc12 (centres unmarked) [Compound 152, hydrochloride]"
  ASSAY_METRIC: "inhibition at 50 µM"
  MEASURED_RESULT: "88%"

The reported measurements were obtained from patent US10221144B2.
